System: A498 renal
Assay: NCI tumour cell line growth inhibition, 48 h
Quantity Kind: TGI

I would be grateful if you could share the reported TGI for CCN(CC)CCC(=O)OC1C(C)=CC(C)C(=O)CC(C(C)CC2CCC(O)C(OC)C2)OC(=O)C2CCCCN2C(=O)C(=O)[C@@]2(O)OC(CCC2C)CC(OC)\C(C)=C/C=C/C=C/C(C)CC(C)C(=O)C1OC (stereo partly drawn) .
17.6 µM

GET /values?readout=TGI&item= Cc1cc2c(cc1C)[n+](=O)c(C(=O)/C=C/c1ccc3c(c1)OCO3)c(C)n2[O-]
> 100 µM

Given the entry CC(C(=O)NCCNC(=O)CCC(=O)N(C)O)C(=O)NCCNC(=O)CCC(=O)N(C)O , report its measured TGI.
> 100 µM

Could you share which TGI value was measured for CC1(C)OC2CC3COC(=O)C3CC2O1 (stereo not drawn) ?
> 100 µM

State the recorded TGI for this entry: C=CC(C)(C)C1(CC(OC)OC)C(=O)N(C)c2ccccc21 (stereo not drawn)
> 25 µM

Query: TGI; subject: C[C@]12CC[C@@H]3c4ccc(O)cc4CC[C@H]3[C@@H]1CC[C@@H]2NS(=O)(=O)c1cccc(Cl)c1
5.19 µM

Which TGI is listed for c1ccc(C(c2cccc3c2ccc2ccccc23)C(c2ccccc2)c2cccc3c2ccc2ccccc23)cc1 (stereo not drawn) ?
> 100 µM

What value of TGI has been recorded for this entry: N/C(=N\S(=O)(=O)c1ccc(-c2ccccn2)s1)Nc1ccc(Cl)cc1
25.8 µM

###

Tested on: HCC-2998 colon
Assay: NCI tumour cell line growth inhibition, 48 h; in the data active = GI50 below about 0.43 µM; inactive = the rest
I would appreciate it if you answered using one of these outcomes: active, inactive

Recorded call for O=C(Nc1ccc2ncnc(Nc3ccc(Oc4cccc(F)c4)c(Cl)c3)c2c1)c1ccc(CN2CCOCC2)cc1 ?
inactive

Please state the recorded outcome for this molecule: c1cc(CN2CCCNCCNCCCNCC2)ccc1CN1CCCNCCNCCCNCC1
inactive

Any idea what this test logged for COc1ccc(-c2nsc3c2NC(=O)CC3c2ccc3c(c2)OCCO3)cc1 (stereo not given) ?
inactive

Short answer needed: outcome of this test for COc1cc2c3c(n(CCCCNC(=O)OC(C)(C)C)c(=O)c2cc1OC)-c1cc2c(cc1C3=O)OCO2 ?
inactive

Please indicate how the test categorized O=C1NCN(c2ccccc2)C12CCN(CCCC(c1ccc(F)cc1)c1ccc(F)cc1)CC2 .
inactive

Record lookup: outcome of this test for COc1ccc(C(C#N)=C2C=CC(=NO)C=C2)cc1 ?
inactive

GET /call?item= Nc1ncnc2c1c(-c1ccc(Oc3ccccc3)cc1)nn2C[C@H]1SSC[C@@H]1O returns the recorded outcome of this test.
inactive

Which outcome was assigned to CC(=Nc1ccccc1)C1=C(O)C(Cc2cccc(F)c2)NC1=O (stereo not given) in this test?
active

# fetch the recorded call for COc1cc(OC)c(/C=C/C(=O)c2ccc(Nc3ncnc4ccccc34)cc2)c(OC)c1 here
inactive

What call does the record list for O=C(O)/C=C/c1ccc[c]([Sb](=[O])([OH])[OH])c1 ?
inactive

Recorded call for CC(CN(C)C)S(=O)(=O)c1ccc(-c2cnc(N)c(C(=O)Nc3ccccc3)n2)cc1 (stereo not given) ?
inactive

Hi team, can someone confirm the assay call for C=C1C(=O)O[C@H]2[C@H]1CC/C(COC(=O)c1cn(C)c3ccccc13)=C\CC[C@@]1(C)O[C@@H]21 ?
inactive

Record request — test call for CCC#CC[C@H](O)C/C=C1/C(=O)C=C[C@@H]1C/C=C\CCCC(=O)OC
inactive

Record lookup: outcome of this test for O=C1/C(=C/c2ccc(F)c(F)c2)CN(C(=O)C(Cl)Cl)C/C1=C\c1ccc(F)c(F)c1 ?
active

How was CN(C)C[C@H]1CCn2c(c(C3=C(c4cn(C)c5ccccc45)C(=O)NC3=O)c3ccccc32)C1 classified in this test?
inactive

For CCCCC[C@H]1CC=C2C(=O)C=C[C@@H]2CC=CCCCC(=O)O[C@@H](CCCCC)CC=C2C(=O)C=C[C@@H]2CC=CCCCC(=O)O[C@@H](CCCCC)CC=C2C(=O)C=C[C@@H]2CC=CCCCC(=O)O1 , which call appears in the assay record?
active

What was the test verdict on CCN(CC)CCCOc1ccc2ncnc(Nc3ccc(Oc4cccc(C(F)(F)F)c4)c(Cl)c3)c2c1 ?
inactive

Test call for this molecule, please: COC12C=C/C(=C(/C(=O)OCCSc3ccnn3C)C(=O)CCCCCCCCC3(OC)C=C/C(=C(/C(=O)OCCSc4ccnn4C)C(=O)CCCCCCCC1)O3)O2
inactive

What did this assay record as the result for Oc1[nH]c(N=C2N=c3ccccc3=N2)c2ccccc12 ?
inactive

For O=C1Nc2ccccc2/C1=C\c1cccc(/C=C2/C(=O)Nc3ccccc32)n1 , which call appears in the assay record?
inactive

###

Test system: RPMI-8226 leukemia
Assay: NCI tumour cell line growth inhibition, 48 h
Quantity Kind: TGI

# get_value(readout='TGI', item= Cc1c(-c2coc(-c3ccccc3)n2)c(=O)n(-c2ccccc2)n1C )
> 100 µM

Name the reported TGI value associated with the compound C=CCOC(=O)c1c(C)n([O-])c2cc(Cl)c(Cl)cc2[n+]1=O
33.9 µM

Report TGI for CCN(CC)CCC(=O)OC1C(C)=CC(C)C(=O)CC(C(C)CC2CCC(O)C(OC)C2)OC(=O)C2CCCCN2C(=O)C(=O)[C@@]2(O)OC(CCC2C)CC(OC)\C(C)=C/C=C/C=C/C(C)CC(C)C(=O)C1OC (stereo not given in full) please.
43.2 µM

I have this compound here, COC(NC(N)=O)C(=O)O (stereo not given) , and I need its recorded TGI.
> 100 µM

Quick one: TGI of O=C(O)/C=C/c1ccc[c]([Sb](=[O])([OH])[OH])c1 ?
> 100 µM

What measured TGI goes with Clc1ccccc1[C@@H]1C[C@@H]2Cc3cc(Br)c4ccccc4c3N1O2 ?
> 100 µM

Form field: reported TGI of C#CCN(N=O)C(=O)NCCCCC(NC(=O)OCc1ccccc1)C(=O)OCc1ccccc1 (stereo not given)
> 100 µM

What value of measured TGI is listed for c1ccc2cc(Cn3cc[n+](Cc4ccc5ccccc5c4)c3)ccc2c1 ?
1.97 µM

Please look up its TGI: CNC(=O)c1cc2nc3ccccc3c(=O)n2c2ccccc12
> 10 µM

What TGI value was documented for this compound, Nc1ncnc2c1ncn2C1OC(CO)C(O)C1NS(=O)(=O)c1ccccc1 (stereo not given) ?
> 100 µM

Look up TGI for this compound: O=C1OC(c2ccccc2)(c2ccccc2)c2ccc3ccc(F)cc3c21
> 100 µM

For CSc1c2c(C)n[nH]c2nn1-c1ccccc1 , what is its reported TGI?
> 100 µM

For the compound COc1cc(OCc2nc3cc(C(F)(F)F)ccc3nc2-c2ccccc2)cc(OC)c1OC , what TGI is on record?
> 100 µM

Item COc1ccc(C(=O)c2c(-c3ccccc3NC(=O)C(F)(F)F)[nH]c3ccccc23)cc1 has what recorded TGI?
27.2 µM

Quick one: TGI of C=CCNc1nc(O)c(/C=C2\C=Nc3ncccc32)s1 ?
6.71 µM

###

Test system: SNB-19 CNS
Assay: NCI tumour cell line growth inhibition, 48 h
Quantity Kind: TGI (µM)
Express the result in µM but write the number alone.

Query (compound): C=C1C(=O)O[C@H]2[C@H]1CC/C(COC(=O)c1cn(C)c3ccccc13)=C\CC[C@@]1(C)O[C@@H]21 ; field requested: TGI
3.64

# input compound: COc1cc(OC)cc(-c2nc3sccn3c2/C=N/N=C(N)N)c1 ; wanted: its TGI
19.3

Please look up its TGI: CCCCCCCN(CCCCCCC)C(=N)c1ccnc2ccccc12
3.68

###

Test system: BT-549 breast
Experiment: NCI tumour cell line growth inhibition, 48 h
Please go through the items and note down their TGI.
Your answer is read as µM, so omit the unit and give the number.

Entry COC12C=C/C(=C(/C(=O)OCCSc3ccnn3C)C(=O)CCCCCCCCC3(OC)C=C/C(=C(/C(=O)OCCSc4ccnn4C)C(=O)CCCCCCCC1)O3)O2 , system BT-549 breast: what TGI was measured?
2.83

Which TGI is reported with BT-549 breast for this entry: N#CCCN(CCC#N)c1ccc(/C=C2\SC(=S)NC2=O)cc1 ?
84.3

###

Tested on: MALME-3M melanoma
Assay: NCI tumour cell line growth inhibition, 48 h; in the data active = GI50 below about 0.43 µM; inactive = the rest
*1 amine or outer side, *2 acyl side, *3 side chain or, on linkers, in order; H or OH if unused. Where a SMILES comes first, the peptide text is derived from it. Bridges are numbered along the chain shown (N, C = ends). Roman numbers before positions name the chains, in order. [ ]: non-standard residue; d: D form. Actinocin(9to1) = Cc1c2oc3c(C)ccc(C(=O)[*:1])c3nc-2c(C(=O)[*:2])c(N)c1=O; NMeV = CN[CH](C(=O)O)C(C)C; Sar = CNCC(=O)O
Give one outcome, nothing more. List: active, inactive

In this assay, the call recorded for COc1cccc(-n2ncc3c(N/N=C/c4ccc(C)cc4)ncnc32)c1 was what?
inactive

GET /call?item= O=C1Nc2ccccc2/C1=C\c1cccc(/C=C2/C(=O)Nc3ccccc32)n1 returns the recorded outcome of this test.
active

Entry Cc1c2oc3c(C)ccc(C(=O)OC(C)C4NC(=O)C(C(C)C)N(C)C(=O)CN(C)C(=O)C5CCCN5C(=O)C(C(C)C)NC4=O)c3nc-2c(C(=O)OC(C)C2NC(=O)C(C(C)C)N(C)C(=O)CN(C)C(=O)C3CCCN3C(=O)C(C(C)C)NC2=O)c(N)c1=O (stereo not drawn) (I: cyclo([Sar][NMeV]TVP) / II: cyclo([Sar][NMeV]TVP); linker I:3-II:3 via Actinocin(9to1); configuration not given here) : call = ?
active

Call for entry COc1ccc(-c2nsc3c2NC(=O)CC3c2ccc3c(c2)OCCO3)cc1 (stereo not drawn) :
active

In this assay, the call recorded for C[C@]12CC[C@@H]3c4ccc(O)cc4CC[C@H]3[C@@H]1CC[C@@H]2NS(=O)(=O)c1cccc(Cl)c1 was what?
inactive

Which outcome was entered for the molecule CC(=O)O[C@@]12CO[C@@H]1C[C@H](O)[C@@]1(C)C(=O)[C@H](O)C3=C(C)[C@@H](OC(=O)[C@H](O)[C@@H](NC(=O)OC(C)(C)C)c4ccccc4)C[C@@](O)([C@@H](OC(=O)c4ccccc4)C12)C3(C)C (stereo partly drawn) in this test?
inactive

Record request — test call for CCCCNCCC(O)c1cc2ccc(C(F)(F)F)cc2c2cc(C(F)(F)F)ccc12 (stereo not drawn)
inactive

Each molecule tested received a call. Report the one for CCN(CC)CCCOc1ccc2ncnc(Nc3ccc(Oc4cccc(C(F)(F)F)c4)c(Cl)c3)c2c1 .
inactive
